# target.under.test: T1, C-terminal human Regnase-1 (amino acids 301 to 599) with N-terminal FLAG tag and C-terminal BirA recognition … (human, UniProt Q5D1E8 301-599)
# T1 sequence: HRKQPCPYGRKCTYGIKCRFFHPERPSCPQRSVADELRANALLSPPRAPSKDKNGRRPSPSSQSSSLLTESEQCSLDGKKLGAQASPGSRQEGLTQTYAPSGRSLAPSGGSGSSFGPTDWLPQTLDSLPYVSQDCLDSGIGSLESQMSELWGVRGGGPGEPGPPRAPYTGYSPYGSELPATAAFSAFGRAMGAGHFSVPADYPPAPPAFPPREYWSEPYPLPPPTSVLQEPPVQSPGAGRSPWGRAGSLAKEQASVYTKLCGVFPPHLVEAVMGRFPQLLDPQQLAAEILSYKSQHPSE
# test.name: cell-based or functional assay
endpoint.label: 50% inhibition concentration, Regnase-1 phosphorylation by TBK1 (AlphaScreen)
Number plus unit, in that order.

For reference, reported 50% inhibition concentration, Regnase-1 phosphorylation by TBK1 (AlphaScreen) for XNSWYINIWGHD (HELM PEPTIDE1{[meA].N.S.W.Y.I.N.I.W.G.H.D.[C1CCN([*:1])C1]}$PEPTIDE1,PEPTIDE1,1:R1-12:R3$$$V2.0; SMILES CC[C@H](C)[C@@H]1NC(=O)[C@H](CC(N)=O)NC(=O)[C@H]([C@@H](C)CC)NC(=O)[C@H](Cc2ccc(O)cc2)NC(=O)[C@H](Cc2c[nH]c3ccccc23)NC(=O)[C@H](CO)NC(=O)[C@H](CC(N)=O)NC(=O)[C@H](C)N(C)C(=O)C[C@@H](C(=O)N2CCCC2)NC(=O)[C@H](Cc2c[nH]cn2)NC(=O)CNC(=O)[C@H](Cc2c[nH]c3ccccc23)NC1=O) [PP15] stands at 17.4 µM

For reference, reported 50% inhibition concentration, Regnase-1 phosphorylation by TBK1 (AlphaScreen) for XVFYKIWYNWD (HELM PEPTIDE1{[meA].V.F.Y.K.I.W.Y.N.W.D.[C1CCN([*:1])C1]}$PEPTIDE1,PEPTIDE1,1:R1-11:R3$$$V2.0; SMILES CC[C@H](C)[C@@H]1NC(=O)[C@H](CCCCN)NC(=O)[C@H](Cc2ccc(O)cc2)NC(=O)[C@H](Cc2ccccc2)NC(=O)[C@H](C(C)C)NC(=O)[C@H](C)N(C)C(=O)C[C@@H](C(=O)N2CCCC2)NC(=O)[C@H](Cc2c[nH]c3ccccc23)NC(=O)[C@H](CC(N)=O)NC(=O)[C@H](Cc2ccc(O)cc2)NC(=O)[C@H](Cc2c[nH]c3ccccc23)NC1=O) [PP19] stands at 5.8 µM
